The reported measurements were obtained from ChEMBL document CHEMBL1201862.

Catalogue of molecules with associated GI50
tested on: COLO 205; assay: NCI tumour cell line growth inhibition, 48 h
The source made the active and inactive calls. Cut-off read from the data, not from the text of the source: active = GI50 up to about 1.1 µM and inactive = higher.

{"columns": ["MOLECULE", "GI50"],
 "data": [
  ["CCOC(=O)/C=C(\\C(=O)OCC)n1ccc(N)nc1=O", "> 100 µM (inactive)"],
  ["C=C(Br)C(C)(Br)CCC(Br)C(C)(C)Cl (stereo not given)", "18.5 µM (inactive)"],
  ["COC(=O)c1cc2c(cc1CC(Cc1ccc3c(c1)CCC3)C(=O)OC)CCC2 (stereo not given)", "29.5 µM (inactive)"],
  ["c1ccc(CCCC2Sc3cccc4cccc(c34)S2)cc1", "> 100 µM (inactive)"],
  ["CN(C(=O)C12C3C4C1C1C4(C(=O)C45C6C7C4C4C5C6C74C)C3C12C)C(C)(C)C (stereo not given)", "35.4 µM (inactive)"],
  ["NC(CCCC(N)P(=O)(O)O)P(=O)(O)O (stereo not given)", "> 100 µM (inactive)"],
  ["Cc1cc([C@H](C#N)c2nc3ccccc3s2)nc(Cl)n1", "2.4 µM (inactive)"],
  ["O=C1/C(=N\\NC(=S)Nc2ccc(Cl)cc2)c2cc([N+](=O)[O-])ccc2N1CN1CCOCC1", "13.2 µM (inactive)"],
  ["CSC(=O)c1sc(SC)[n+](-c2ccccc2)c1O", "27.7 µM (inactive)"],
  ["CCOP(=O)(/C=C\\n1cc(C)c(=O)[nH]c1=O)OCC", "> 100 µM (inactive)"]
]}

In plain terms, "O=C(O)c1cnc2c(ccc3ncc(C(=O)O)c(O)c32)c1O" has a documented GI50 of > 100 µM (inactive)

In plain terms, "Nc1ccc(-c2nnc(-c3c(Cl)c(Cl)c(Cl)c(Cl)c3-c3nc4cc(C(=O)c5ccccc5)ccc4[nH]3)o2)cc1" has a documented GI50 of 18.6 µM (inactive)

In plain terms, "CCNC(=O)c1c(O)nc2ccccc2c1O" has a documented GI50 of 56.9 µM (inactive)

In plain terms, "Cc1cc(=O)n2c3c(c4c(cc13)c(CO)cc(=O)n4C)OC2" has a documented GI50 of 16.5 µM (inactive)

In plain terms, "Cc1ccc(N2C=Nn3c(nc4sc5c(c4c3=O)CCCC5)C2)cc1" has a documented GI50 of 67.8 µM (inactive)

----------
tested on: NCI-H226; assay: NCI tumour cell line growth inhibition, 48 h
Activity calls are given as the source filed them. Cut-off read from the data, not from the text of the source: active = GI50 up to about 1.1 µM and inactive = higher.
RECORDED METRIC: GI50

Below are worked cases with known answers.
{"columns": ["COMPOUND", "GI50"],
 "data": [
  ["Oc1ccc(-c2cc(-c3c(O)cc(O)cc3O)on2)cc1", "70.8 µM (inactive)"],
  ["CCC(=O)OCOc1ccc(/C=C2\\CCC(CN(C)C)C2=O)cc1 (stereo not given)", "13.8 µM (inactive)"],
  ["S=c1[nH]nc(Cn2c3ccc(Br)cc3c3nc4ccccc4nc32)o1", "> 77.3 µM (inactive)"],
  ["CC12CCC(=O)N1[C@@H](c1ccccc1)[C@@H](c1ccccc1)O2 (stereo not given in full)", "> 100 µM (inactive)"]
]}

Okay, now this compound:
Test item "O=[N+]([O-])c1cc(C(F)(F)F)ccc1S(=O)(=O)N[C@@H]1CCCC[C@H]1NS(=O)(=O)c1ccc(C(F)(F)F)cc1[N+](=O)[O-]" ; NCI-H226; reported GI50 was 7.52 µM (inactive)
